experimental target: glucosylceramide synthase (GCS) (Homo sapiens, UniProt Q16739)
Construct: The obtained supernatant was used
Sequence (Q16739 1-394): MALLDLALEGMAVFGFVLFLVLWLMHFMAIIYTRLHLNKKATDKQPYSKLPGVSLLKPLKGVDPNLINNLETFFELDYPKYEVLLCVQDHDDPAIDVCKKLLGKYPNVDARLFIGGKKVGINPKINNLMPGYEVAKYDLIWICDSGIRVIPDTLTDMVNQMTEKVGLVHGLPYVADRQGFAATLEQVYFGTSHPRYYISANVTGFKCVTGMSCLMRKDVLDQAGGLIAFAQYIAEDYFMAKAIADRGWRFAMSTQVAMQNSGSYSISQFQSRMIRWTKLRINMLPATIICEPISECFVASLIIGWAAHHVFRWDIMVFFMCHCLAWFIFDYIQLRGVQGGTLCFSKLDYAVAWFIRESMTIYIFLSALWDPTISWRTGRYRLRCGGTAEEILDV
protocol summary: GCS enzyme inhibition assay (A549 cell lysate, NBD C6-ceramide, HPLC fluorescence)
assay setup: inhibitory activity against GCS, 37° C., 90 minutes
observed property: IC50 (nM)
The answer is to be given in nM; state only the numeric part.

Use the examples below as a reference point.
COc1ccc(-c2cc3c(cc2OC)C(NC(=O)O[C@@H]2CN4CCC2CC4)C(C)(C)CO3)c(C)c1 (stereo partly drawn) | 0.99
CC1(C)COc2cc(-c3cccnc3)ccc2C1NC(=O)O[C@@H]1CN2CCC1CC2 (stereo partly drawn) | 2.03
CC1(C)COc2cc(-c3cccc(C(F)(F)F)c3)ccc2C1NC(=O)O[C@@H]1CN2CCC1CC2 (stereo partly drawn) | 1
Cc1cc(C)c(Cl)c(-c2ccc3c(c2)OCC(C)(C)C3NC(=O)O[C@@H]2CN3CCC2CC3)c1 (stereo partly drawn) | 1.96

Q: Write down the reported IC50 of O=C(NC1CCOc2cc(-c3ccc4c(c3)OCCCO4)ccc21)O[C@@H]1CN2CCC1CC2 (stereo partly drawn) , test system: glucosylceramide synthase (GCS) (Homo sapiens, UniProt Q16739).
A: 2

Q: Tell me reported IC50 for CC1(C)COc2cc(-c3cccc(Cl)c3)ccc2C1NC(=O)O[C@@H]1CN2CCC1CC2 (stereo partly drawn) , tested with glucosylceramide synthase (GCS) (Homo sapiens, UniProt Q16739).
A: 1

These measurements were taken from patent US12673944B2.
